target: D(3) dopamine receptor (Homo sapiens); note: assay procedure not described here
Sequence (P35462 whole entry): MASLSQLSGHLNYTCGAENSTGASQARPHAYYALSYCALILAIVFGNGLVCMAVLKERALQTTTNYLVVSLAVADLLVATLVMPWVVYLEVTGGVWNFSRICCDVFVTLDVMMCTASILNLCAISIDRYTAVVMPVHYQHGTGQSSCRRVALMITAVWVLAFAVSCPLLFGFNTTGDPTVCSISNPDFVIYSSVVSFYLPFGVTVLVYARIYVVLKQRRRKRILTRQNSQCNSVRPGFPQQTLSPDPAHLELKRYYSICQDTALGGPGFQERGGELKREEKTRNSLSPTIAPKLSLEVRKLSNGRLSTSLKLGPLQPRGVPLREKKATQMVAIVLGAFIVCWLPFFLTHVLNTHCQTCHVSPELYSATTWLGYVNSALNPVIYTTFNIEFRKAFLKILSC
measurement-kind: AC50

molecule: CC(C)[C@@H]1CC[C@@H](C)C[C@H]1O [LEVOMENTHOL]
result: > 30 µM

molecule: COc1cc(C)c2c(Oc3cccc(C(F)(F)F)c3)c(OC)cc(NC(C)CCCN)c2n1 (stereo not drawn) [TAFENOQUINE]
result: 2.57 µM

molecule: CC(=O)[C@]1(N)Cc2c(O)c3c(c(O)c2[C@@H](O[C@H]2C[C@H](O)[C@H](O)CO2)C1)C(=O)c1ccccc1C3=O [AMRUBICIN]
result: > 30 µM

molecule: N#Cc1ccc(Oc2ccc3c(c2)COB3O)cc1 [CRISABOROLE]
result: > 30 µM

molecule: CC[C@@H]1C[C@]1(NC(=O)[C@@H]1C[C@@H]2CN1C(=O)[C@H](C(C)(C)C)NC(=O)OCC(C)(C)CCCCc1cccc3c1CN(C3)C(=O)O2)C(=O)NS(=O)(=O)C1CC1
result: > 30 µM

Ask | What does the record list as AC50 for CC1(C)S[C@@H]2[C@H](/N=C/N3CCCCCC3)C(=O)N2[C@H]1C(=O)O [AMDINOCILLIN] ?
Reply | > 30 µM

Ask | What about CCC[C@H](N[C@@H](C)C(=O)N1[C@H](C(=O)O)C[C@@H]2CCCC[C@@H]21)C(=O)OCC [PERINDOPRIL] ?
Reply | > 30 µM

Ask | Also Cc1cc(C2CCCCC2)n(O)c(=O)c1 [CICLOPIROX] ?
Reply | > 30 µM

Ask | Proceed to CC(OCCN1CCCCCC1)(c1ccccc1)c1ccc(Cl)cc1 (stereo not drawn) [SETASTINE]
Reply | 0.432 µM

Ask | Quick one: C[C@]12C=CC(=O)C=C1CC[C@H]1[C@@H]3C[C@@H](O)[C@](O)(C(=O)CO)[C@@]3(C)C[C@H](O)[C@@]12F [TRIAMCINOLONE]
Reply | > 30 µM

###

Parameter log10 AC50: see the listing below.
target: Prostaglandin G/H synthase 1 (Homo sapiens); assay type: functional; note: assay procedure not described here
Sequence (P23219 whole entry): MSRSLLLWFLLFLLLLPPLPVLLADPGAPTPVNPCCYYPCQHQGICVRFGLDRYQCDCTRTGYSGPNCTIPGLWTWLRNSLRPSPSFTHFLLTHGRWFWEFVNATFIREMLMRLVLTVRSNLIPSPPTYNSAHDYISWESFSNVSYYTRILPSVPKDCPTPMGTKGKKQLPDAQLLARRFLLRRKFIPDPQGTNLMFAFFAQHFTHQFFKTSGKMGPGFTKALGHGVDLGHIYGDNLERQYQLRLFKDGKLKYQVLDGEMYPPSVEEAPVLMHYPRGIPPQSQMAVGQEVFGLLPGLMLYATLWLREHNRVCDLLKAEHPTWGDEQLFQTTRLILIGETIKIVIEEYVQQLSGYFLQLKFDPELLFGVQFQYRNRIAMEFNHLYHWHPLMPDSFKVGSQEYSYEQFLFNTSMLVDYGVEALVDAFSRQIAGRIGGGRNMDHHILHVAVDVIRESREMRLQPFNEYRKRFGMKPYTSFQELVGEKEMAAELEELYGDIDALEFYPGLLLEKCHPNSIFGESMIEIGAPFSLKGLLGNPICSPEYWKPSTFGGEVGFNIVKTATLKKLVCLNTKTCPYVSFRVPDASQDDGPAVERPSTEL
The figures below represent log10 of AC50, where AC50 is stated in µM.

Please review the following examples before continuing.
compound: C=C1CC[C@H](O)C/C1=C/C=C1\CCC[C@]2(C)[C@@H]([C@H](C)CCCC(C)C)CC[C@@H]12
log10 AC50: 1.09

compound: C=N[C@@H](C(=O)N[C@@H]1C(=O)N2[C@@H]1SC(C)(C)[C@@H]2C(=O)O)c1ccccc1
log10 AC50: 1.07

compound: C[C@@H]1C[C@H]2[C@@H]3C[C@H](F)C4=CC(=O)C=C[C@]4(C)[C@@]3(F)[C@@H](O)C[C@]2(C)[C@@]1(OC(=O)c1ccco1)C(=O)SCF [FLUTICASONE FUROATE]
log10 AC50: 1.00

compound: CC(=O)[C@]1(N)Cc2c(O)c3c(c(O)c2[C@@H](O[C@H]2C[C@H](O)[C@H](O)CO2)C1)C(=O)c1ccccc1C3=O
log10 AC50: 0.45

Ask | Bench note: what log10 AC50 did Cc1ccc(C(=O)c2ccc(CC(=O)O)n2C)cc1 show?
Reply | -1.38

###

Here's a batch of molecules along with measured AC50 for Beta-2 adrenergic receptor (Homo sapiens).

molecule: CCOC(=O)c1ccc(C#Cc2ccc3c(c2)C(C)(C)CCS3)nc1
AC50: > 10 µM
--
molecule: O=C(O)c1ccc(NC(=O)[C@H](Cc2ccc(O)cc2)NC(=O)c2ccccc2)cc1 [BENTIROMIDE]
AC50: > 10 µM

Shifting focus to the molecule that follows.
Ask | GET /values?readout=AC50&item= Oc1ccc(CCNCCCCCCNCCc2ccccc2)cc1O
Reply | 3.8 µM

###

The following compounds have recorded AC50 on Growth hormone secretagogue receptor type 1 (Homo sapiens, UniProt Q92847).
Sequence (Q92847 whole entry): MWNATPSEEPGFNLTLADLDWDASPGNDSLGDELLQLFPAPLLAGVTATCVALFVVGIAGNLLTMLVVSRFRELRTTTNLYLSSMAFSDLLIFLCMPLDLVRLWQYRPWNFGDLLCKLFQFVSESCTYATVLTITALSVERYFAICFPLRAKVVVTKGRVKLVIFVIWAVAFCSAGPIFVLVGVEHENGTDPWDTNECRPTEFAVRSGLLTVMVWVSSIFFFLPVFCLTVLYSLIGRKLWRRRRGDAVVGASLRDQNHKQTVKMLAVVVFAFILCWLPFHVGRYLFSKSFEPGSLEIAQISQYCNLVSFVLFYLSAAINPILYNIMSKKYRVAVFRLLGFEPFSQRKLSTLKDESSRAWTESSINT

Ask | Which AC50 reading was recorded for the compound O=c1c(O)c(-c2ccc(O)c(O)c2)oc2cc(O)cc(O)c12 [QUERCETIN] ?
Reply | > 30 µM

Ask | Cool, now Cc1ccc(C)c(OCCCC(C)(C)C(=O)O)c1 [GEMFIBROZIL]
Reply | > 30 µM

Ask | Consider next the compound CC(C)[C@H](N)C(=O)OCCOCn1cnc2c(=O)[nH]c(N)nc21 [VALACYCLOVIR] in the same way.
Reply | > 30 µM

Ask | Also check CCOc1cc([C@@H](CS(C)(=O)=O)N2C(=O)c3cccc(NC(C)=O)c3C2=O)ccc1OC
Reply | > 30 µM

Ask | Same again, this time with COc1ccc([C@@H]2CC(=O)c3c(O)cc(O)cc3O2)cc1O [HESPERETIN]
Reply | > 10 µM

Ask | Proceed to CCCN1CC(NS(=O)(=O)N(CC)CC)CC2Cc3c(O)cccc3CC21 (configuration not stated) [QUINAGOLIDE]
Reply | > 30 µM

Ask | What about CCC(NC(C)C)C(O)c1ccc(O)c2[nH]c(=O)ccc12 (configuration not stated) [PROCATEROL] ?
Reply | > 30 µM

Ask | Check CCOC(=O)C(C)(C)Oc1ccc(Cl)cc1 [CLOFIBRATE] too.
Reply | > 30 µM

Ask | Next record, please: CN(CCOc1ccc(CC2SC(=O)NC2=O)cc1)c1ccccn1 (configuration not stated) [ROSIGLITAZONE]
Reply | > 30 µM

Ask | Now this one: COc1ccc2cc(CCC(C)=O)ccc2c1 [NABUMETONE]
Reply | > 10 µM

Ask | Consider next the compound Cc1ccnc2c1NC(=O)c1cccnc1N2C1CC1 [NEVIRAPINE] in the same way.
Reply | > 30 µM

Ask | Same question, OC[C@H]1O[C@@H](n2cnc3c2NC=NC[C@H]3O)C[C@@H]1O [PENTOSTATIN] this time
Reply | > 30 µM

###

Dear all, this message contains AC50 results, target or system Alpha-2A adrenergic receptor (Homo sapiens). Note: assay procedure not described here.

Known results for molecules:
molecule: O=c1c(O)c(-c2ccc(O)c(O)c2)oc2cc(O)cc(O)c12
tested-target: Alpha-2A adrenergic receptor (Homo sapiens); note: assay procedure not described here
Sequence (P08913 whole entry): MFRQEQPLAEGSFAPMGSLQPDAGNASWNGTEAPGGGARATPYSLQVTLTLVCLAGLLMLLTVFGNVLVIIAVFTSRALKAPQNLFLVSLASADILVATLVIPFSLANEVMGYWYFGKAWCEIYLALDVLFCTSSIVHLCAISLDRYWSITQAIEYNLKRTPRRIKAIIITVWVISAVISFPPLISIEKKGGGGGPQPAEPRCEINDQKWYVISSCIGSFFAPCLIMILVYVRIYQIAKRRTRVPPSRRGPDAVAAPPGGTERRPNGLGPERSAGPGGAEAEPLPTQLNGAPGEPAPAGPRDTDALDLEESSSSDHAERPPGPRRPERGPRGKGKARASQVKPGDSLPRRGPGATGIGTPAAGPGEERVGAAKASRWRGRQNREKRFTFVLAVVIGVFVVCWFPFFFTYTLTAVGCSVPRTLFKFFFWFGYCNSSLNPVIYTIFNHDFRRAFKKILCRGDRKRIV
AC50: > 10 µM
--
molecule: CC[C@@H](CO)NC(=O)[C@@H]1C=C2c3cccc4c3c(cn4C)C[C@H]2N(C)C1 [METHYSERGIDE]
tested-target: Alpha-2A adrenergic receptor (Homo sapiens); note: assay procedure not described here
AC50: 2.42 µM
--
molecule: CC(C)NC[C@H](O)COc1ccc(CC(N)=O)cc1
tested-target: Alpha-2A adrenergic receptor (Homo sapiens); note: assay procedure not described here
AC50: > 10 µM
--
molecule: NS(=O)(=O)c1cc2c(cc1Cl)N=C(CSCc1ccccc1)NS2(=O)=O [BENZTHIAZIDE]
tested-target: Alpha-2A adrenergic receptor (Homo sapiens); note: assay procedure not described here
AC50: 2.48 µM
--
molecule: CCC(=O)O[C@](Cc1ccccc1)(c1ccccc1)[C@H](C)CN(C)C
tested-target: Alpha-2A adrenergic receptor (Homo sapiens); note: assay procedure not described here
AC50: > 10 µM
--
molecule: Cc1ccc(C)c(OCCCC(C)(C)C(=O)O)c1
tested-target: Alpha-2A adrenergic receptor (Homo sapiens); note: assay procedure not described here
AC50: > 10 µM
--
molecule: NNC(=O)c1ccncc1
tested-target: Alpha-2A adrenergic receptor (Homo sapiens); note: assay procedure not described here
AC50: > 10 µM
--
molecule: O=C(O)Cc1ccccc1Nc1c(Cl)cccc1Cl
tested-target: Alpha-2A adrenergic receptor (Homo sapiens); note: assay procedure not described here
AC50: > 10 µM

Ask | For the molecule shown here, CC(C)[C@H](N)C(=O)OCCOCn1cnc2c(=O)[nH]c(N)nc21 , give the reported AC50.
Reply | > 10 µM

Ask | Follow-up item: Cc1nc(Nc2ncc(C(=O)Nc3c(C)cccc3Cl)s2)cc(N2CCN(CCO)CC2)n1
Reply | > 10 µM

Ask | Now give it for O=C1Nc2ccc(Cl)cc2C(c2ccccc2Cl)=NC1O (stereo not given) too.
Reply | > 10 µM

Ask | And CC(=O)O[C@]1(C(C)=O)CC[C@H]2[C@@H]3C=C(Cl)C4=CC(=O)[C@@H]5C[C@@H]5[C@]4(C)[C@H]3CC[C@@]21C [CYPROTERONE ACETATE] ?
Reply | > 10 µM

Ask | And CCOc1nc2cccc(C(=O)O)c2n1Cc1ccc(-c2ccccc2-c2nnn[nH]2)cc1 ?
Reply | > 10 µM

Ask | Okay, and COc1cc(C(C)=O)ccc1OCCCN1CCC(c2noc3cc(F)ccc23)CC1 ?
Reply | 0.176 µM

Ask | Same read-out for CN(CCOc1ccc(CC2SC(=O)NC2=O)cc1)c1ccccn1 (stereo not given) ?
Reply | > 30 µM

###

// reported AC50 per item
target: Muscarinic acetylcholine receptor M2 (Homo sapiens, UniProt P08172); note: assay procedure not described here
Sequence (P08172 whole entry): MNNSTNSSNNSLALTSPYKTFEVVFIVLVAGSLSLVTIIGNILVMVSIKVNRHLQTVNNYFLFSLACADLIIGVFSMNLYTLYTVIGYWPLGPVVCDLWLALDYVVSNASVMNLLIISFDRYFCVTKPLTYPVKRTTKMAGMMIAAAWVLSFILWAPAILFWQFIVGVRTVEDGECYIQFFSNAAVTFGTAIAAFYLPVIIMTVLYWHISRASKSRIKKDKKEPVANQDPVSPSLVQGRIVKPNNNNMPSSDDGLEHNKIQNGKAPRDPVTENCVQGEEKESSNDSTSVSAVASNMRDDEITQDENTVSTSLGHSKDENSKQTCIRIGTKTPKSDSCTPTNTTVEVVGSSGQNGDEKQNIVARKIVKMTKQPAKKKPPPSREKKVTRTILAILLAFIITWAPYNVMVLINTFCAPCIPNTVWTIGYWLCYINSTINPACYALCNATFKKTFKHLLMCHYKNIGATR

Some solved entries appear below for comparison.
compound: Cc1cc(=O)[nH]c(=S)[nH]1 [METHYLTHIOURACIL]
AC50: > 30 µM

compound: O=C(/C=C/c1cccc(S(=O)(=O)Nc2ccccc2)c1)NO [BELINOSTAT]
AC50: > 30 µM

compound: CC(O)(CS(=O)(=O)c1ccc(F)cc1)C(=O)Nc1ccc(C#N)c(C(F)(F)F)c1 (stereo not given) [BICALUTAMIDE]
AC50: > 30 µM

Ask | Which AC50 is listed for CC(=O)O[C@]1(C(C)=O)CC[C@H]2[C@@H]3C=C(Cl)C4=CC(=O)[C@@H]5C[C@@H]5[C@]4(C)[C@H]3CC[C@@]21C [CYPROTERONE ACETATE] ?
Reply | 9.17 µM

Ask | Moving on to O=S1(=O)CCN(CN2CCS(=O)(=O)NC2)CN1 [TAUROLIDINE]
Reply | > 30 µM

Taken from ChEMBL document CHEMBL5291721.
